system: RPMI-8226 leukemia; assay: NCI-60 one-dose screen, 48 h (100 = growth as untreated, 0 = no growth, -100 = all killed); details: 10 µM unless noted
Compounds without any hit were thinned out: in the full panel of roughly 83,000, 20% have a hit.
Please respond with yes (1) when measured growth is strictly beneath 10%, and with no (0) in all other cases.

Would you kindly verify if growth of `Cc1c2c(cc[n+]1Cc1ccccc1)c1ccc(OCC3CCCCC3)cc1n2CC1CCCCC1` is strictly less than 10%?
yes (1)

Would you kindly verify if growth of `C=C(C)[C@@H]1CC[C@]2(C=O)CC[C@]3(C)[C@H](CC[C@@H]4[C@@]5(C)CCCNC(C)(C)[C@@H]5CC[C@]43C)[C@@H]12` is strictly less than 10%?
no (0)

Would you kindly verify if growth of `CCN(CC)CCCCCCNc1cc(OC)cc2cccnc12` is strictly less than 10%?
yes (1)

Would you kindly verify if growth of `O=C(O)c1ccc[n+](CC(=O)N2CCN(c3cc4c(cc3F)c(=O)c(C(=O)O)cn4C3CC3)CC2)c1` is strictly less than 10%?
no (0)

Would you kindly verify if growth of `C=CCn1c(SCC(=O)Nc2ccc(C(=O)/C=C/c3cc(OC)c(OC)c(OC)c3)cc2)nnc1-c1cc(OC)c(OC)c(OC)c1` is strictly less than 10%?
yes (1)

Would you kindly verify if growth of `CC(=O)Nc1ccc(S(=O)(=O)NC2CCCCC2)cc1` is strictly less than 10%?
no (0)

Would you kindly verify if growth of `COc1cc(-c2nc3sccn3c2-c2ccnc(NCCNS(=O)(=O)c3ccc(F)cc3)n2)ccc1F` is strictly less than 10%?
yes (1)

Would you kindly verify if growth of `COc1ccccc1-c1c(-c2ccc(Cl)cc2)c2cc3c(cc2[nH]c1=O)OCCO3` is strictly less than 10%?
yes (1)

Would you kindly verify if growth of `COc1ccncc1C#Cc1cncc(C(=O)Nc2ccc(CN3CCN(C)CC3)c(C(F)(F)F)c2)c1` is strictly less than 10%?
no (0)

Would you kindly verify if growth of `CCOC(=O)c1ccc(Nc2ccnc(SCC(=O)c3ccc(C#N)cc3)n2)cc1` is strictly less than 10%?
no (0)

Would you kindly verify if growth of `CC[C@H](C)[C@@H]1NC(=O)[C@H](Cc2ccc(O)cc2)N(C)C(=O)[C@H](Cc2ccccc2)NC(=O)CN(C)C(=O)[C@@H]2CCCN2C(=O)[C@@H](Cc2ccccc2)N(C)C(=O)[C@H](CC(C)C)NC1=O` is strictly less than 10%?
yes (1)

###

For each record, write down the corresponding growth.
test system: SF-295 CNS; test: NCI-60 one-dose screen, 48 h (100 = growth as untreated, 0 = no growth, -100 = all killed); conditions: 10 µM unless noted
This is part of a sample that, as a whole, favours compounds with a hit. Of some 83,000 tested, about 20% had one in any assay. Active and inactive are the calls of the source. Rule for the calls: active = growth percent below 10; inactive = the rest.

Value of measured growth for the entry `O=C(Nc1sc2c(c1C(=O)O)CCCC2)c1cccc(C(F)(F)F)c1` : 85.1% (inactive)

Value of measured growth for the entry `Cc1cc(Nc2cccc(C(F)(F)F)c2)n2c(nc3ccccc32)c1C#N` : 53.9% (inactive)

Value of measured growth for the entry `C=CCn1c(SCC(=O)Nc2ccc(C(=O)/C=C/c3cc(OC)c(OC)c(OC)c3)cc2)nnc1-c1cc(-c2ccc(S(C)(=O)=O)cc2)nc2ccccc12` : 97.4% (inactive)

Value of measured growth for the entry `COc1cc(-c2nc3sccn3c2-c2ccnc(NCCNS(=O)(=O)c3ccc(F)cc3)n2)ccc1F` : 4.27% (active)

Value of measured growth for the entry `O=C(CN1CCOCC1)Nc1ccc2ncnc(Nc3ccc(Oc4cccc(F)c4)c(Cl)c3)c2c1` : 84.2% (inactive)

Value of measured growth for the entry CC(=O)OC1CCC2(C)C(CCC3C4CC=C(C(C)=O)C4(C)OC(=O)CC32)C1 (configuration not stated) : 73.1% (inactive)

Value of measured growth for the entry `CCCCOc1ccc(/C=N/Nc2cc(C)nc3ccc(Cl)cc23)cc1` : -83.6% (active)

###

system: MOLT-4 leukemia; experiment: NCI-60 one-dose screen, 48 h; conditions: 10 µM unless noted
Compounds without any hit were thinned out: in the full panel of roughly 83,000, 20% have a hit. Active and inactive are the calls of the source. How the source made its calls: active means growth percent below 10; inactive means the rest.
Please state which outcome applies, choosing from active, inactive

Which outcome did this test record for the molecule C/C(=C(/c1ccccc1)c1ccc(OCC(O)CN2CCOCC2)cc1)c1ccccc1 (configuration not stated) ?
inactive

Which outcome did this test record for the molecule `COc1cc2c(cc1[N+](=O)[O-])-c1ccc([N+](=O)[O-])cc1/C2=N\O` ?
inactive

Which outcome did this test record for the molecule `O=S(=O)(c1ccc(N/N=C\c2ccccc2)cc1)c1ccc(N/N=C/c2ccccc2)cc1` ?
inactive

Which outcome did this test record for the molecule `COc1ccc(CNCCN2C(=O)c3ccc4c5c(ccc(c35)C2=O)C(=O)N(CCNCc2ccc(OC)cc2)C4=O)cc1` ?
active

Which outcome did this test record for the molecule O=C(c1ccccc1)N1N=C(c2ccc(-n3ccc(C(F)(F)F)n3)cc2)CC1c1ccc[nH]1 (configuration not stated) ?
inactive

Which outcome did this test record for the molecule COc1ccc(C(O)c2cc3c(N)c(C(=O)Nc4ccccc4)sc3nc2C)cc1 (configuration not stated) ?
inactive

Which outcome did this test record for the molecule `O=C1Nc2cc(-c3ccncc3)ccc2/C1=C/c1ccc[nH]1` ?
inactive

###

test system: MDA-MB-231 breast; assay: NCI-60 one-dose screen, 48 h; details: 10 µM unless noted
About 83,000 compounds went through this panel and 20% of them were active in at least one assay; those are over-represented in the sample as a whole. The source made the active and inactive calls. The calls were made as follows: active = growth percent below 10; inactive = the rest.
Please state which outcome applies, choosing from T for active, F for inactive

Which outcome did this test record for the molecule `O=C1Nc2c(ccc(Cl)c2Cl)/C1=C/c1ccc(O)cc1` ?
F

Which outcome did this test record for the molecule `NC(=O)c1cccc(-n2ccc3cc(NC(=O)Nc4cc(C(F)(F)F)cc(C(F)(F)F)c4)ccc32)n1` ?
F

Which outcome did this test record for the molecule `CS(=O)(=O)c1ccc(-c2cc(-c3nnc(SCC(=O)Nc4ccc(C(=O)/C=C/c5ccc(Cl)cc5)cc4)n3-c3ccccc3)c3ccccc3n2)cc1` ?
F

Which outcome did this test record for the molecule `COc1ccc(Cn2nc3c(c2-c2cc(OC)c(OC)c(OC)c2)-c2oncc2CC3)cc1` ?
F

Which outcome did this test record for the molecule `Cc1c([N+](=O)[O-])cc(C(C)(C)C)cc1[N+](=O)[O-]` ?
F

Which outcome did this test record for the molecule `O=C1CCCN1c1cccc2cccnc12` ?
F

Which outcome did this test record for the molecule `CCOC(=O)N1CCc2c(sc3nc4nc[nH]n4c(=O)c23)C1` ?
F

Which outcome did this test record for the molecule `C=C(C)[C@@H]1CC[C@]2(C(=O)N3CCN(C)CC3)CC[C@]3(C)[C@H](CC[C@@H]4[C@@]5(C)CCC(=O)C(C)(C)[C@@H]5CC[C@]43C)[C@@H]12` ?
F

Which outcome did this test record for the molecule `c1ccc(Cn2nc3c(c2-c2ccccc2)-c2oncc2CC3)cc1` ?
F

Which outcome did this test record for the molecule `O=C1NC(=O)C(=Cc2cn(Cc3ccccn3)c3ccccc23)C(=O)N1` ?
F

Which outcome did this test record for the molecule CCC(C)C(N)C(=O)NNc1n[nH]c(=S)n1N (stereo not given) ?
F

Which outcome did this test record for the molecule `Cc1ccc(C(=O)Nc2ccccc2C(=O)N/N=C(\c2ccccc2)c2ccccn2)cc1` ?
F

Which outcome did this test record for the molecule CCCCCCCCCCCCC1CCC/C=C\CCC(=O)O1 (stereo not given) ?
F

Which outcome did this test record for the molecule `CCCCCCOc1ccc(/C=N/Nc2cc(C)nc3ccc(Br)cc23)cc1` ?
T

Which outcome did this test record for the molecule `Cn1c(COC(=O)NCCc2ccccn2)nc2c(N3CCOCC3)nc(Cl)nc21` ?
T

###

system: HT29 colon; experiment: NCI-60 one-dose screen, 48 h (100 = growth as untreated, 0 = no growth, -100 = all killed); conditions: 10 µM unless noted
About 83,000 compounds went through this panel and 20% of them were active in at least one assay; those are over-represented in the sample as a whole.
The label depends only on growth: Yes if it is at least 50%, No if it is smaller.

Could you verify whether the entry `COc1cc2nc(-c3ccc(-c4nn[nH]n4)cc3)[nH]c(=O)c2cc1OC` shows growth of no less than 50%?
Yes

Could you verify whether the entry CCCC1C(C(=O)OCC)=C(N)Oc2cc(O)ccc21 (stereo not drawn) shows growth of no less than 50%?
Yes

Could you verify whether the entry `Cc1cn(-c2cc(C(=O)Nc3cccc(C#Cc4cccc5[nH]nc(N)c45)c3)cc(C(F)(F)F)c2)cn1` shows growth of no less than 50%?
No

Could you verify whether the entry `CCN(CC)CCSCCCNc1c(C)cnc2cc(Cl)ccc12` shows growth of no less than 50%?
Yes

Could you verify whether the entry `C#CC(=O)Nc1cccc(Nc2nc3c(c(NCc4ccccc4)n2)CCCC3)c1` shows growth of no less than 50%?
No

Could you verify whether the entry `S=c1[nH]cccc1-c1nnc2n1Nc1nc3ccc(Cl)cc3cc1CS2` shows growth of no less than 50%?
Yes

Could you verify whether the entry `CCOC(=O)Oc1c(OC)cc(C(=O)O[C@@H]2C[C@@H]3CN4CCc5c([nH]c6cc(OC)ccc56)[C@H]4C[C@@H]3[C@H](C(=O)OC)[C@H]2OC)cc1OC` shows growth of no less than 50%?
No

Could you verify whether the entry `Cc1ccc(/C=C/C(=O)c2ccc(N)cc2)c(C)c1` shows growth of no less than 50%?
Yes
